// values below are reported selectivity ratio
test-summary: Selectivity index, ratio of CC50 for cytotoxicity against HUVEC cells to IC50 for antiplasmodial activity against Plasmodium falciparum 3D7
Type: toxicity, cell-based
conditions-used: human, read-out: Ratio CC50/IC50

Here is how some compounds turned out for selectivity ratio.
CC(C)(C)C1CC(O)OO1 (mixture of isomers) ... 35
CCCCCCC1CC(CC(=O)C(C)(C)C)OO1 (mixture of isomers) ... < 6
CCCCCCC1CC(C#N)OO1 (mixture of isomers) ... < 10

Which selectivity ratio reading was recorded for the compound CCCCCCC1CCOO1 (stereo unspecified) ?
< 10.6

Check C=C(C)CC1CC(CCCCCC)OO1 (mixture of isomers) too.
68

Check CCCCCCC1CC(CC(=O)c2ccccc2)OO1 (mixture of isomers) too.
24

Check CCCCCCC1CC(C/C=C\Br)OO1 (mixture of isomers) too.
< 2

Check CC(C)C1CC(O)OO1 (mixture of isomers) too.
234

Check CCCCCCC1CC(CC(=O)Sc2ccccc2)OO1 (mixture of isomers) too.
< 1.8

Check CCCCCCC1CC(O)OO1 (mixture of isomers) too.
< 71

Check CCCCCCC1CC(C/C=C\Cl)OO1 (mixture of isomers) too.
40

---

test-summary: Cytotoxicity against HUVEC cells assessed as reduction in cell viability
Format: cell-based
conditions-used: human
// values below are reported log10 of CC50
Values reflect log10 of reported CC50 (µM).

Here is how some molecules turned out for log10 of CC50.
CC(=O)OC1CC(C(C)C)OO1 (mixture of isomers) ... 1.77
CCCCCCC1CC(OC(C)=O)OO1 (mixture of isomers) ... 1.76
CCCCCCC1CC(C#N)OO1 (mixture of isomers) ... 1.04
CCN(CC)CCCC(C)Nc1ccnc2cc(Cl)ccc12 (stereo not drawn) ... 1.50
C=CCC1CC(CCCCCC)OO1 (mixture of isomers) ... -0.15
CCCCCCC1CC(O)OO1 (mixture of isomers) ... 1.86
CCCCCCC1CC(CC(=O)SCC)OO1 (mixture of isomers) ... 0.28
CCCCCCC1CC(C/C=C\Br)OO1 (mixture of isomers) ... 0.36

Here is another molecule to look at.
Which log10 of CC50 reading was recorded for the molecule CCCCCCC1CCOO1 (stereo not drawn) ?
1.03

---

test-summary: Selectivity index, ratio of CC50 for cytotoxicity against HUVEC cells to IC50 for antiplasmodial activity against Plasmodium falciparum 3D7
Format: toxicity, cell-based
conditions-used: human, read-out: Ratio CC50/IC50
measure: selectivity ratio
Kindly provide the number alone.

CCCCCCC1CC(CC(=O)SCC)OO1 (mixture of isomers) ... 7
C=CCC1CC(CCCCCC)OO1 (mixture of isomers) ... 7

Here is another compound to look at.
Which selectivity ratio reading was recorded for the compound CC(=O)OC1CC(C(C)(C)C)OO1 (mixture of isomers) ?
628

---

test-summary: Selectivity index, ratio of CC50 for cytotoxicity against HUVEC cells to IC50 for antileishmanial activity against axenic amastigote form of Leishmania donovani LV9
Assay type: toxicity, cell-based
conditions-used: human, read-out: Ratio CC50/IC50
measure: selectivity ratio

CC(C)C1CC(O)OO1 (mixture of isomers) ... < 0.28
CCCCCCC1CCOO1 (stereo unspecified) ... 0.2
CC(=O)OC1CC(C(C)C)OO1 (mixture of isomers) ... < 0.59
CCCCCCC1CC(O)OO1 (mixture of isomers) ... < 0.72
C=CCC1CC(CCCCCC)OO1 (mixture of isomers) ... < 0.01

Which selectivity ratio reading was recorded for the compound `CCCCCCCCCCCCCCCCOP(=O)([O-])OCC[N+](C)(C)C` ?
32

---

test-summary: Cytotoxicity against HUVEC cells assessed as reduction in cell viability
Assay type: cell-based
conditions-used: human
Rule: CC50 below 10 µM gives y, anything at or above gives n.

CCCCCCC1CC(CC(=O)c2ccccc2)OO1 (mixture of isomers) ... y
CC(C)(C)C1CC(O)OO1 (mixture of isomers) ... n
CCCCCCC1CC(CC(=O)Sc2ccccc2)OO1 (mixture of isomers) ... y

Does CCCCCCC1CC(CC(=O)C(C)(C)C)OO1 (mixture of isomers) have CC50 strictly under 10 µM?
y

Check `CCCCCCCCCCCCCCCCOP(=O)([O-])OCC[N+](C)(C)C` too.
n

---

Tested on: Plasmodium falciparum
test-summary: Antimalarial activity against Plasmodium falciparum
Assay type: functional, organism-based
measure: pEC50
Convention used: pEC50 is expressed as -log10 of the molar concentration.

Which pEC50 reading was recorded for the molecule `C=C/C=C/C=C\C=C\C=C\C=C/C=C\C[C@H]1C[C@@H](CC(=O)O)OO1` ?
7.28

---

// values below are reported selectivity ratio
test-summary: Selectivity index, ratio of CC50 for cytotoxicity against HUVEC cells to IC50 for antileishmanial activity against axenic amastigote form of Leishmania donovani LV9
Type: toxicity, cell-based
conditions-used: human, read-out: Ratio CC50/IC50
Kindly provide the number alone.

CCCCCCC1CC(C/C=C\Br)OO1 (mixture of isomers) ... 1.48
CCCCCCC1CC(C#N)OO1 (mixture of isomers) ... 0.26
CCCCCCC1CC(CC(=O)SCC)OO1 (mixture of isomers) ... 1.01
CCCCCCC1CC(C/C=C\Cl)OO1 (mixture of isomers) ... 4.09
CCCCCCC1CC(CC(=O)Sc2ccccc2)OO1 (mixture of isomers) ... 0.83
CCCCCCC1CC(CC(=O)C(C)(C)C)OO1 (mixture of isomers) ... 1.38

Which selectivity ratio reading was recorded for the compound C=C(C)CC1CC(CCCCCC)OO1 (mixture of isomers) ?
1.71

Check CCCCCCC1CC(OC(C)=O)OO1 (mixture of isomers) too.
0.82

---

test-summary: Cytotoxicity against HUVEC cells assessed as reduction in cell viability
Type: cell-based
conditions-used: human
measure: CC50 (µM)
Give the value, in units of µM, as a plain number.

Here is how some molecules turned out for CC50.
C=C(C)CC1CC(CCCCCC)OO1 (mixture of isomers) ... 11.7
CCCCCCC1CC(C/C=C\Cl)OO1 (mixture of isomers) ... 6.13
CC(=O)OC1CC(C(C)(C)C)OO1 (mixture of isomers) ... 12.6

Here is another molecule to look at.
Which CC50 reading was recorded for the molecule CC(C)C1CC(O)OO1 (mixture of isomers) ?
28.2

---

test-summary: Selectivity index, ratio of CC50 for cytotoxicity against HUVEC cells to IC50 for antileishmanial activity against axenic amastigote form of Leishmania donovani LV9
Format: toxicity, cell-based
conditions-used: human, read-out: Ratio CC50/IC50
// values below are reported selectivity ratio

Here is how some molecules turned out for selectivity ratio.
CCCCCCC1CC(CC(=O)c2ccccc2)OO1 (mixture of isomers) ... < 0.09
CC(C)(C)C1CC(O)OO1 (mixture of isomers) ... < 0.12

Here is another molecule to look at.
Which selectivity ratio reading was recorded for the molecule CC(=O)OC1CC(C(C)(C)C)OO1 (mixture of isomers) ?
< 0.13
